experiment: PK after subcutaneous administration of solutions in rats; format: in vivo, Wistar Han rat; conditions: male, Wistar Han, rat, plasma, sc, 50 mg/kg, rat #1; 840 h; SC 50 mg/kg, 300 mg/mL in 15% water/85% PEG 300
Parameter measured: concentration at 840 h (nM)
Numbers only; they are read as nM.

// recorded concentration at 840 h for CC(C)(C#Cc1ccc(-c2ccc(Cl)c3c(NS(C)(=O)=O)nn(CC(F)(F)F)c23)c([C@H](Cc2cc(F)cc(F)c2)NC(=O)Cn2nc(C(F)(F)F)c3c2C(F)(F)[C@@H]2C[C@H]32)n1)S(C)(=O)=O [Formula (Ia)] : 322

----------
assay: PK after subcutaneous administration of solutions in dogs; type: in vivo, Beagle dog; conditions: male, beagle, dog, plasma, sc, 12 mg/kg, dog #2; 672 h; SC 12 mg/kg, 400 mg/mL in 15% water/85% PEG 300
Parameter measured: concentration at 672 h (nM)
Lab book: enter the figure in nM, no units written.

get_value(item= "CC(C)(C#Cc1ccc(-c2ccc(Cl)c3c(NS(C)(=O)=O)nn(CC(F)(F)F)c23)c([C@H](Cc2cc(F)cc(F)c2)NC(=O)Cn2nc(C(F)(F)F)c3c2C(F)(F)[C@@H]2C[C@H]32)n1)S(C)(=O)=O" , readout=concentration at 672 h) returns 81.5

----------
experiment: PK after subcutaneous administration of solutions in rats; assay type: in vivo, Wistar Han rat; conditions: male, Wistar Han, rat, plasma, sc, 50 mg/kg, rat mean, n=3; 3 h; SC 50 mg/kg, 300 mg/mL in 15% water/85% PEG 300
Parameter measured: concentration at 3 h (nM)
Numbers only; they are read as nM.

get_value(item= "CC(C)(C#Cc1ccc(-c2ccc(Cl)c3c(NS(C)(=O)=O)nn(CC(F)(F)F)c23)c([C@H](Cc2cc(F)cc(F)c2)NC(=O)Cn2nc(C(F)(F)F)c3c2C(F)(F)[C@@H]2C[C@H]32)n1)S(C)(=O)=O" , readout=concentration at 3 h) returns 21.5

----------
experiment: PK after oral administration in liquid-filled capsules in dogs; format: in vivo, beagle dogs; settings: beagle, dog, plasma, po, 7.5 mg, beagle dogs; oral liquid-filled capsules, 100% glycerol monocaprylocaprate, 7.5 mg fixed dose; 50 mg/mL (Table S); mean ± SD, n=6; read-out: AUC0-72h
Parameter measured: AUC(0-t) (µM·h)
Please respond with the number in µM·h and leave the unit unwritten.

// AUC(0-t) lookup, compound = "CC(C)(C#Cc1ccc(-c2ccc(Cl)c3c(NS(C)(=O)=O)nn(CC(F)(F)F)c23)c([C@H](Cc2cc(F)cc(F)c2)NC(=O)Cn2nc(C(F)(F)F)c3c2C(F)(F)[C@@H]2C[C@H]32)n1)S(C)(=O)=O" , result: 5.07

----------
experiment: PK after oral administration of spray-dried dispersion (SDD) tablets in dogs; type: in vivo; conditions: dog, plasma; beagle dogs; oral SDD tablet of the sodium salt (Table T composition, Opadry II White film coat), 300 mg fixed dose; mean ± SD, n=6
Parameter measured: AUC(0-inf)
Please provide the amount together with its unit, number first.

The value of AUC(0-inf) measured for the molecule CC(C)(C#Cc1ccc(-c2ccc(Cl)c3c(NS(C)(=O)=O)nn(CC(F)(F)F)c23)c([C@H](Cc2cc(F)cc(F)c2)NC(=O)Cn2nc(C(F)(F)F)c3c2C(F)(F)[C@@H]2C[C@H]32)n1)S(C)(=O)=O [Formula (Ia)] turned out to be 18.5 µM·h

----------
experiment: Plasma PK after single oral administration in solution, rhesus monkey; type: in vivo; settings: male, plasma, single oral 4.0 mg/kg, solution in 5% ethanol/20% propylene glycol/45% PEG 300/30% 0.01 N HCl, mean ± SD, n=3, read-out: AUC0-72h
Parameter measured: AUC(0-t) (µM·h)
Report as a plain number; the unit µM·h is understood.

Lookup result for "CC(C)(C#Cc1ccc(-c2ccc(Cl)c3c(NS(C)(=O)=O)nn(CC(F)(F)F)c23)c([C@H](Cc2cc(F)cc(F)c2)NC(=O)Cn2nc(C(F)(F)F)c3c2C(F)(F)[C@@H]2C[C@H]32)n1)S(C)(=O)=O" ; measured AUC(0-t): 972

----------
test: PK after subcutaneous administration of solutions in rats; type: in vivo, Wistar Han rat; conditions: male, Wistar Han, rat, plasma, sc, 50 mg/kg, rat #2; 3 h; SC 50 mg/kg, 300 mg/mL in 15% water/85% PEG 300
Parameter measured: concentration at 3 h (nM)
Give the number; nM is assumed, so skip it.

Lab book: concentration at 3 h of "CC(C)(C#Cc1ccc(-c2ccc(Cl)c3c(NS(C)(=O)=O)nn(CC(F)(F)F)c23)c([C@H](Cc2cc(F)cc(F)c2)NC(=O)Cn2nc(C(F)(F)F)c3c2C(F)(F)[C@@H]2C[C@H]32)n1)S(C)(=O)=O" noted as 17.3

----------
Assay: PK after subcutaneous administration of solutions in dogs
Format: in vivo, Beagle dog
Conditions: male, beagle, dog, plasma, sc, 12 mg/kg, dog mean, n=3; 3.0 h; SC 12 mg/kg, 400 mg/mL in 15% water/85% PEG 300
Procedure: Formulations containing the compound of Formula (Ia) were prepared as aqueous solutions or oral formulations and administered subcutaneously to rats, dogs, cynomolgus monkey, and/or rhesus monkey. A solution of the compound of Formula (Ia) in 10% ethanol, 13% water, and 77% PEG 200 (400 mg/mL) was prepared. The solution was administered subcutaneously to dogs at a dose of 12 mg/kg and rats at a dose of 50 mg/kg and the pharmacokinetic (PK) profile was determined. […]
Parameter measured: concentration at 3 h (nM)
Answer format: numeric, nM implied, no suffix.

Given item "CC(C)(C#Cc1ccc(-c2ccc(Cl)c3c(NS(C)(=O)=O)nn(CC(F)(F)F)c23)c([C@H](Cc2cc(F)cc(F)c2)NC(=O)Cn2nc(C(F)(F)F)c3c2C(F)(F)[C@@H]2C[C@H]32)n1)S(C)(=O)=O" , the value recorded as its concentration at 3 h is 2

----------
test: PK after subcutaneous administration of solutions in dogs; assay type: in vivo, Beagle dog; conditions: beagle, dog, plasma, sc, 12 mg/kg, dog; SC 12 mg/kg; 300 mg/mL solution (w/w %: 23.2 water, 50.0 PEG 300, 25.7 Formula (Ia), 1.1 NaOH); mean ± SD, n=3
Parameter measured: Cmax
Kindly write the number and append the unit.

Reported Cmax for "CC(C)(C#Cc1ccc(-c2ccc(Cl)c3c(NS(C)(=O)=O)nn(CC(F)(F)F)c23)c([C@H](Cc2cc(F)cc(F)c2)NC(=O)Cn2nc(C(F)(F)F)c3c2C(F)(F)[C@@H]2C[C@H]32)n1)S(C)(=O)=O" was 267 nM

----------
assay: PK after subcutaneous administration of solutions in dogs; type: in vivo, Beagle dog; conditions: male, beagle, dog, plasma, sc, 12 mg/kg, dog #2; 840 h; SC 12 mg/kg, 400 mg/mL in 15% water/85% PEG 300
Parameter measured: concentration at 840 h (nM)
Field format: number, assumed nM, no unit text.

The recorded concentration at 840 h for entry "CC(C)(C#Cc1ccc(-c2ccc(Cl)c3c(NS(C)(=O)=O)nn(CC(F)(F)F)c23)c([C@H](Cc2cc(F)cc(F)c2)NC(=O)Cn2nc(C(F)(F)F)c3c2C(F)(F)[C@@H]2C[C@H]32)n1)S(C)(=O)=O" equals 110

----------
assay: PK after subcutaneous administration of solutions in rats; assay type: in vivo, Wistar Han rat; conditions: male, Wistar Han, rat, plasma, sc, 50 mg/kg, rat mean, n=3; 336 h; SC 50 mg/kg, 300 mg/mL in 15% water/85% PEG 300
Parameter measured: concentration at 336 h (nM)
Write down the numeric answer in nM and omit the unit.

Per the record, "CC(C)(C#Cc1ccc(-c2ccc(Cl)c3c(NS(C)(=O)=O)nn(CC(F)(F)F)c23)c([C@H](Cc2cc(F)cc(F)c2)NC(=O)Cn2nc(C(F)(F)F)c3c2C(F)(F)[C@@H]2C[C@H]32)n1)S(C)(=O)=O" has concentration at 336 h of 272

----------
assay: PK after subcutaneous administration of solutions in dogs; format: in vivo, Beagle dog; details: male, beagle, dog, plasma, sc, 12 mg/kg, male beagle dog; single SC 12 mg/kg; 400 mg/mL in 85% PEG300 and 15% water; mean ± SD, n=3; read-out: AUC0-1344h
Parameter measured: AUC(0-t) (µM·h)
Please state the figure in µM·h; there is no need to write the unit.

Lab note: measured AUC(0-t) of "CC(C)(C#Cc1ccc(-c2ccc(Cl)c3c(NS(C)(=O)=O)nn(CC(F)(F)F)c23)c([C@H](Cc2cc(F)cc(F)c2)NC(=O)Cn2nc(C(F)(F)F)c3c2C(F)(F)[C@@H]2C[C@H]32)n1)S(C)(=O)=O" was 102
